inhibition at 10 µM reference
- target desc: human 17β-HSD3 (Homo sapiens, UniProt P37058)
- Construct: expressed in transfected cells; host or cells: 293-EBNA cells (human), stably transfected
- Sequence (P37058 whole entry): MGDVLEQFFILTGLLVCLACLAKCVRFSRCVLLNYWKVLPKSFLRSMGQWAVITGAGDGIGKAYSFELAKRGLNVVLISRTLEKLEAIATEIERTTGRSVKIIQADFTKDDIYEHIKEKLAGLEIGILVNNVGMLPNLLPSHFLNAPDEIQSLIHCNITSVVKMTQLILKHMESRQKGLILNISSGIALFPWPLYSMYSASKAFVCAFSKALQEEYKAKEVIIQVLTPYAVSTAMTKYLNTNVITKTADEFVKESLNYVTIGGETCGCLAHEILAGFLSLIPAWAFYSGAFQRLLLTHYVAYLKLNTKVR
- test method notes: 17β-Hydroxysteroid dehydrogenase Type 3 activity in stably transfected 293-EBNA cells (3H-androstenedione to testosterone conversion)
- Assay type: cell-based
- condition details: 10 μM test compound; 293-EBNA cells stably transfected with 17β-HSD Type 3; 2-3 nM 3H-androstenedione; 2 hours
- Method: Assay Protocol—17β-Hydroxysteroid Dehydrogenase Type 3 Activity in the Presence of Regulatory Agents 293-EBNA cells stably transfected with 17β-HSD Type 3 were plated at 50,000 cells/well in 24 well plates in complete growth medium. […] After drying the plates, the major spots were marked under a UV lamp, cut out, and placed in individual scintillation vials containing 0.5 ml methanol. […] The number of cells/well was then counted using a Coulter counter (Beckman). […]
Where a name gives a salt, the structure may show the parent alone.

Some solved cases for reference:
- compound: "CC(=O)NCCC(=O)Nc1ccccc1Oc1ccc(Cl)cc1 [STX1859]"
  inhibition at 10 µM: "< 20%"
- compound: "CC(=O)N1CCC(Nc2ccccc2Oc2ccc(Cl)cc2)c2ccccc21 (stereo not drawn) [STX2138]"
  inhibition at 10 µM: "20 to 60%"
- compound: "O=C(Nc1ccccc1Oc1ccc(Cl)cc1)C1CCN(C(=O)c2ccccc2)CC1 [STX1615]"
  inhibition at 10 µM: "< 20%"

Task item: # get_value(readout= inhibition at 10 µM, system= human 17β-HSD3 (Homo sapiens, UniProt P37058)) for CC(=O)N1CCC(Nc2ccccc2-c2ccc(Cl)cc2)CC1 [STX2044]
Reply: 20 to 60%

Task item: What would you report for CC(C)(C)C(=O)N1CCC(Nc2ccccc2Oc2ccc(Cl)cc2)CC1 [STX1631] ?
Reply: 20 to 60%

Task item: Entry CC(=O)N1CCC(Nc2ccccc2Oc2ccc(Cl)cc2)CC1C(C)C (stereo not drawn) [STX2523] please
Reply: > 60%

Task item: Also need CC(=O)N1CCC(C(=O)Nc2ccccc2Oc2ccc(Cl)cc2)CC1 [STX1617] , thanks.
Reply: 20 to 60%

Task item: Now consider CC(=O)N1CCC(C(=O)Nc2ccccc2Oc2ccc(Cl)cc2Cl)CC1 [STX1614] .
Reply: > 60%

Task item: // query: CC(=O)N1CCC(Nc2ccccc2-c2ccccc2Oc2ccccc2)CC1 [STX2048, hydrochloride]
Reply: 20 to 60%

All values here come from patent US8119627B2.
